# CONDITION SET: 313.15 K; 101.33 kPa; Liquid; Capillary tube (Ostwald / Ubbelohde) method
viscosity of 0.8 mPa·s or higher: met. Under 0.8 mPa·s: not met.

Request: Decide: viscosity of CCCCCO [pentan-1-ol] >= 0.8 mPa·s?
Response: met

Request: Decide: viscosity of CCCCCCCCO [octan-1-ol] >= 0.8 mPa·s?
Response: met

Request: Decide: viscosity of CCCO [propan-1-ol] >= 0.8 mPa·s?
Response: met

Request: Decide: viscosity of CCOC(=O)OCC [diethyl carbonate] >= 0.8 mPa·s?
Response: not met

---

Hi there, I'd appreciate the recorded viscosity for every entry that follows.
# CONDITION SET: 298.15 K; 101.33 kPa; Liquid; Capillary tube (Ostwald / Ubbelohde) method
± gives the expanded uncertainty stated by the source.
Value and unit, in that order.

Request: Provide one value: measured viscosity of CCOC(=O)OCC [diethyl carbonate]
Response: 0.757 ± 0.008 mPa·s

Request: Provide one value: measured viscosity of CCCO
Response: 1.973 ± 0.019 mPa·s

Request: Provide one value: measured viscosity of CCCCCO
Response: 3.497 ± 0.034 mPa·s

Request: Provide one value: measured viscosity of CCCCCCCCO
Response: 7.688 ± 0.072 mPa·s

Request: Provide one value: measured viscosity of CCO
Response: 1.132 ± 0.011 mPa·s

---

# CONDITION SET: 288.15 K; 101.33 kPa; Liquid; Capillary tube (Ostwald / Ubbelohde) method
OBSERVATION TYPE: viscosity (mPa·s)
Answer format: numeric, mPa·s implied, no suffix.

Request: Provide one value: measured viscosity of CCOC(=O)OCC [diethyl carbonate]
Response: 0.864

Request: Provide one value: measured viscosity of CCCCCCCCO [octan-1-ol]
Response: 11.07

Request: Provide one value: measured viscosity of CCCCCO [pentan-1-ol]
Response: 4.682

Request: Provide one value: measured viscosity of CCCO [propan-1-ol]
Response: 2.507

Request: Provide one value: measured viscosity of CCO [ethanol]
Response: 1.313

All values here come from the NIST ThermoML archive (doi:10.1021/je1013476).
